Every entry's value here was drawn from patent US20250101063A1.

Test system: zebrafish model of intestinal mucosal injury
measurement-protocol: Efficacy in relieving colitis: intestinal lumen area in TNBS-treated zebrafish
Format: in vivo
protocol-conditions: 1000 μg/mL; significance vs model control group of the same batch
Where no end group is shown, it is not given here. [ ]: non-standard residue; d: D form.
attribute-measured: Activity in relieving intestinal lumen dilatation

Example cases with answers are listed next.
{"substance": "PAYKEPVPQAKPRKVAAQ [Compound 90]", "observed-measurement": "* (* p < 0.05)"}
{"substance": "EPVPQAKPRKVA [Compound 51]", "observed-measurement": "* (* p < 0.05)"}
{"substance": "KEPVPQAKPRKVAAE [Compound 103]", "observed-measurement": "* (* p < 0.05)"}
{"substance": "Lys-Glu-Pro-Val-Pro (KEPVP; printed: Lys-Glu-Pro-Val-Pro) [Compound 85]", "observed-measurement": "* (* p < 0.05)"}
{"substance": "Pro-Arg-Lys-Val (PRKV; printed: Pro-Arg-Lys-Val) [Compound 18]", "observed-measurement": "−"}

Activity in relieving intestinal lumen dilatation recorded for this substance, EPVGQAK [Compound 77] , is −

Activity in relieving intestinal lumen dilatation recorded for this substance, NPVPQAK [Compound 50] , is * (* p < 0.05)

Activity in relieving intestinal lumen dilatation recorded for this substance, KEPVPQAKPR[dK]VAAQ [Compound 71] , is +

Activity in relieving intestinal lumen dilatation recorded for this substance, EPVPQAKVPY [Compound 102] , is +

Activity in relieving intestinal lumen dilatation recorded for this substance, Pro-Val-Pro-Gln-Ala (PVPQA; printed: Pro-Val-Pro-Gln-Ala) [Compound 39] , is +

###

Test system: zebrafish model of intestinal mucosal injury
measurement-protocol: Efficacy in relieving colitis: intestinal lumen area in TNBS-treated zebrafish
Format: in vivo
Design: key: * p < 0.05; ** p < 0.01; *** p < 0.001; “−“ indicates absence of activity; “+” indicates some relief of intestinal lumen dilatation; “#” indicates that all the zebrafishes died in the experiment; “&” indicates that 13 zebrafishes died in the experiment
protocol-conditions: 1000 μg/mL; significance vs model control group of the same batch
Where no end group is shown, it is not given here. [ ]: non-standard residue; d: D form.
attribute-measured: Activity in relieving intestinal lumen dilatation

{"substance": "KAPVPQAKPRKVAAQ [Compound 20]", "observed-measurement": "&"}
{"substance": "KEP[dV]PQAKPRKVAAQ [Compound 64]", "observed-measurement": "+"}
{"substance": "SSEDIKEPVPQ [Compound 99]", "observed-measurement": "* (* p < 0.05)"}
{"substance": "KEPVPQAKGRKVAAQ [Compound 33]", "observed-measurement": "+"}
{"substance": "EPVPEAK [Compound 55]", "observed-measurement": "* (* p < 0.05)"}

Activity in relieving intestinal lumen dilatation recorded for this substance, PVPQAK [Compound 44] , is −

Activity in relieving intestinal lumen dilatation recorded for this substance, EPVPQAK [Compound 6] , is ** (** p < 0.01)

Activity in relieving intestinal lumen dilatation recorded for this substance, Val-Ala-Ala-Gln (VAAQ; printed: Val-Ala-Ala-Gln) [Compound 8] , is +

###

System: zebrafish model of intestinal mucosal injury
measurement-protocol: Efficacy in relieving colitis: intestinal lumen area in TNBS-treated zebrafish
Format: in vivo
protocol-conditions: 1000 μg/mL; significance vs model control group of the same batch
Where no end group is shown, it is not given here. [ ]: non-standard residue; d: D form.
attribute-measured: Activity in relieving intestinal lumen dilatation

Example cases with answers are listed next.
{"substance": "KEPVPQAKPRKVAA[dQ] [Compound 75]", "observed-measurement": "* (* p < 0.05)"}
{"substance": "Glu-Pro-Val-Pro (EPVP; printed: Glu-Pro-Val-Pro) [Compound 9]", "observed-measurement": "** (** p < 0.01)"}
{"substance": "KEPVPQAKPRKVA[dA]Q [Compound 74]", "observed-measurement": "+"}
{"substance": "KEPVPQAKPRKAAAQ [Compound 29]", "observed-measurement": "* (* p < 0.05)"}
{"substance": "PVPQAKPR [Compound 59]", "observed-measurement": "+"}
{"substance": "EPVPQAKPR [Compound 57]", "observed-measurement": "** (** p < 0.01)"}
{"substance": "KEPVPAAKPRKVAAQ [Compound 23]", "observed-measurement": "+"}

Now consider a different substance.
Activity in relieving intestinal lumen dilatation recorded for this substance, RKDVYKEPVPQAKPRKVAAQ [Compound 91] , is +

###

Test system: zebrafish model of intestinal mucosal injury
measurement-protocol: Efficacy in relieving colitis: intestinal lumen area in TNBS-treated zebrafish
Type: in vivo
protocol-conditions: 250 μg/mL in water, 2 days after TNBS, n = 10
Where no end group is shown, it is not given here.
Assign labels as follows, please: true (1) for Intestinal lumen area (pixels, mean ± SE) below 50000 pixels; false (0) for Intestinal lumen area (pixels, mean ± SE) equal to or exceeding 50000 pixels.

# input Hi there! Is Intestinal lumen area (pixels, mean ± SE) for H-KEPVPQAKPRKVAAQ-OH [Compound 1] below 50000 pixels, do you know?
# output true (1)

# input Hi there! Is Intestinal lumen area (pixels, mean ± SE) for PRKVAAQ [Compound 5] below 50000 pixels, do you know?
# output true (1)

# input Hi there! Is Intestinal lumen area (pixels, mean ± SE) for Arg-Lys-Val-Ala (RKVA; printed: Arg-Lys-Val-Ala) [Compound 15] below 50000 pixels, do you know?
# output true (1)

# input Hi there! Is Intestinal lumen area (pixels, mean ± SE) for EPVPQAK [Compound 6] below 50000 pixels, do you know?
# output false (0)

###

System: zebrafish model of intestinal mucosal injury
measurement-protocol: Efficacy in relieving colitis: intestinal lumen area in TNBS-treated zebrafish
Type: in vivo
Set-up: key: * p < 0.05; ** p < 0.01; *** p < 0.001; “−“ indicates absence of activity; “+” indicates some relief of intestinal lumen dilatation; “#” indicates that all the zebrafishes died in the experiment; “&” indicates that 13 zebrafishes died in the experiment
protocol-conditions: 1000 μg/mL; significance vs model control group of the same batch
Protocol: Experimental animals: Wild-type AB strain zebrafishes, bred by natural pair mating. Zebrafishes aged 3 days post fertilization (3 dpf). Zebrafishes were kept in fish farming water at 28° C. […] (2) Experimental method: 3 dpf wild-type AB strain zebrafishes were randomly selected and placed in a 6-well plate, with 30 zebrafishes in each well (experimental group). […] The statistics results were expressed as mean±SE. […]
Where no end group is shown, it is not given here.
attribute-measured: Activity in relieving intestinal lumen dilatation

{"substance": "EPVPQAR [Compound 45]", "observed-measurement": "#"}
{"substance": "APVPQAK [Compound 46]", "observed-measurement": "+"}
{"substance": "KEPVPQAKPRAVAAQ [Compound 28]", "observed-measurement": "+"}
{"substance": "KEAVPQAKPRKVAAQ [Compound 21]", "observed-measurement": "+"}
